Target: T1, NLpoly11S
T1 chain: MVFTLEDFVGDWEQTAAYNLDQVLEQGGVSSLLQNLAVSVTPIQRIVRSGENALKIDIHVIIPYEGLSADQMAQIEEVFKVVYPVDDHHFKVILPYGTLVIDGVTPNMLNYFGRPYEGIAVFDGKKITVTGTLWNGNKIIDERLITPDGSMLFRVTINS
Test: luminescence complementation titration, one-site specific binding fit
Threshold-based label: Bmax under 4000 gives yes (1), Bmax not under 4000 gives no (0).

hey, is Bmax for VEGYRLFEQAS (modifications not checked) [array2.77] lower than 4000 or not?
no (0)

Do the same for VEGYRLFQKIL (modifications not checked) [array2.91] please
no (0)

What do you get for VTGYRLFQQAS (modifications not checked) [array2.14] ?
no (0)

Now the same for VEGYRLFEQIS (modifications not checked) [array2.76]
no (0)

# iterate: VEGYRLFQEAS (modifications not checked) [array2.71]
no (0)

What do you have for VEGYRLFKEAS (modifications not checked) [array2.62] ?
yes (1)

How about VEGYRLFEQES (modifications not checked) [array2.78] ?
no (0)

Could you do the same for VEGYRLFQQIL (modifications not checked) [array2.94] , please?
yes (1)

Data provenance: patent US20200292534A1
